# Test system: OVCAR-4
# Test details: NCI tumour cell line growth inhibition, 48 h
Calls of active or inactive are those of the source. Cut-off read from the data, not from the text of the source: active = GI50 up to about 1.1 µM and inactive = higher.
Use one of these outcomes when replying: active, inactive

Completed entries (count: 4):
Compound	Tested target	Group label
COc1cc(C2CC(C)(N3CCOCC3)Oc3cc4c(cc32)OCO4)cc(OC)c1OC (stereo not given)	OVCAR-4	active
CC(=O)Nc1ccc2c3c(cc(O)c2c1)N(C(=O)CCCC(=O)Nc1ccc2c4c(cc(O)c2c1)N(C(=O)OC(C)(C)C)CC4CCl)CC3CCl (stereo not given)	OVCAR-4	inactive
Brc1ccc2c(c1)-c1nc3nc4c(cc3cc1CC2)CCc1ccc(Br)cc1-4	OVCAR-4	active
CCOC(=O)NC(OC)(C(F)(F)F)C(F)(F)F	OVCAR-4	inactive

Consider the record given below.
Recorded test call requested for COC(=O)NC1(NC(=O)OC)NC(=O)c2ccccc2N1 inactive

====

# Tested on: UACC-62
# Test details: NCI tumour cell line growth inhibition, 48 h
Activity calls are given as the source filed them. Rule as the data show it: active = GI50 up to about 1.1 µM and inactive = higher.
Use one of these outcomes when replying: t for active, f for inactive

Recorded test call requested for COc1ccc2c(c1)CC[C@@H]1C2CC[C@]2(C)C(=O)N(N)C(=O)CC12 (some centres undefined) f

Recorded test call requested for NC(=S)N1N=C2c3ccccc3CC[C@H]2[C@@H]1c1cccs1 f

Recorded test call requested for C/C(=N/NC(=S)Nc1ccc(Cl)cc1)c1cccc(/C(C)=N\NC(=S)Nc2ccc(Cl)cc2)n1 f

Recorded test call requested for CC(=O)c1ccccc1NC(=O)C(=O)C(C(=O)c1ccc2ccccc2c1)C1OC(=O)c2ccccc21 (centres undefined) f

====

# Test system: TK-10
# Test details: NCI tumour cell line growth inhibition, 48 h
The source made the active and inactive calls. Cut-off read from the data, not from the text of the source: active = GI50 up to about 1.1 µM and inactive = higher.
Readout kind: GI50

Molecule	Readout kind	Recorded result
c1ccc(C[n+]2cccc(-c3cc4ccccc4[nH]3)c2)cc1	GI50	32.7 µM (inactive)
O=C(O)C12C3C4C1C1C2C3C1(Br)C41OCCO1 (stereo not drawn)	GI50	> 100 µM (inactive)

Okay, now this molecule:
Returns the measured GI50 for the input molecule. Input: CCOC1OCCCC1Br (stereo not drawn) > 100 µM (inactive)

====

# System: OVCAR-3
# Test details: NCI tumour cell line growth inhibition, 48 h
The source made the active and inactive calls. Cut-off read from the data, not from the text of the source: active = GI50 up to about 1.1 µM and inactive = higher.
Readout kind: GI50

Compound	Recorded result
CCCCN1CSC(=S)N(Cc2ccccc2)C1	33.7 µM (inactive)
NC(=O)NC(=O)c1cccc(NC(=O)CF)c1	> 100 µM (inactive)
O=C(Nc1cccc(C(=O)NCCCO)c1)/C(=C/c1ccccc1)NC(=O)c1ccccc1	> 100 µM (inactive)
O=C(CCCn1ccnc1[N+](=O)[O-])NCCn1cnc([N+](=O)[O-])c1	> 100 µM (inactive)
O=[N+]([O-])/C=C/c1cc(Cl)c(/C=C/[N+](=O)[O-])cc1Cl	1.97 µM (inactive)
NC1CCCCC1.O=P(O)(O)C(O)/C=C/c1ccccc1 (stereo not given)	> 100 µM (inactive)
Nc1ccc2c(c1)NC(=O)[C@@H]1CCCN1C2=O	> 100 µM (inactive)
c1nc2cscc2c2cscc12	> 100 µM (inactive)
COC(=O)C(C(=O)C(=O)Nc1ccc(C)cc1C)c1csc(-n2nc(-c3ccccc3)cc2-c2ccccc2)n1 (stereo not given)	86.5 µM (inactive)

Okay, now this compound:
Returns the measured GI50 for the input compound. Input: O[C@H]1[C@H](O)[C@@H](Cn2nnc(-c3ccccc3)c2-c2ccccc2)OCO[C@@H]1Cn1nnc(-c2ccccc2)c1-c1ccccc1 2.96 µM (inactive)

====

# System: SF-539
# Test details: NCI tumour cell line growth inhibition, 48 h
The source made the active and inactive calls. No stated cut-off is given here; in the data, active = GI50 up to about 1.1 µM and inactive = higher.
Use one of these outcomes when replying: true for active, false for inactive

Completed entries (count: 10):
Compound	Tested target	Group label
CN(C)/N=N/c1ccc([N+](=O)[O-])cc1C(N)=O	SF-539	false
CC(=O)OCC1OC(OCCCOP(=S)(OCCC#N)OCC2OC(n3ccc(N)nc3=O)C(OC(=O)c3ccccc3)C2OC(=O)c2ccccc2)C(OC(C)=O)C(OC(C)=O)C1OC(C)=O (stereo not drawn)	SF-539	false
CC1=NN(c2cccc(Cl)c2)C2(SCC(=O)N2c2nc3ccccc3s2)/C1=C\c1ccccc1O (stereo not drawn)	SF-539	false
N=C(N)N/N=C/c1c(-c2ccc(Cl)cc2)nc2sc(Cl)cn12	SF-539	false
C=CS(=O)(=O)CCN1CC1	SF-539	false
C/N=C(\N)c1ccc(NC(=N)c2ccc(C(=N)Nc3ccc(/C(N)=N/C)cc3)cc2)cc1	SF-539	false
CC(=O)Oc1ccc2c(=O)c(C(C)=O)coc2c1	SF-539	false
O=C1C(=O)N(C2C3CC4CC(C3)CC2C4)C(=O)C(=O)C1c1nc2ccccc2o1 (stereo not drawn)	SF-539	false
CC(C)(Br)C1(O)CCCN1C(=O)c1ccccc1 (stereo not drawn)	SF-539	false
Cc1c(C(=O)/C=C/c2ccc([N+](=O)[O-])cc2)[n+]([O-])c2ccccc2[n+]1[O-]	SF-539	false

Consider the record given below.
Recorded test call requested for Cn1c2ccccc2c2c3c(c4c5ccccc5n(C5OC(CO)C(O)C(O)C5O)c4c21)C(=O)OC3=O (stereo not drawn) false

====

Entries and their measured GI50 follow.
# Tested on: NCI-H460
# Test details: NCI tumour cell line growth inhibition, 48 h
Active and inactive are the calls of the source. Cut-off read from the data, not from the text of the source: active = GI50 up to about 1.1 µM and inactive = higher.

These recorded examples may help you get a feel for the data.
Molecule	GI50
CCN1C(=O)c2cc(OC)c(OC)cc2C(=O)C12OC(=O)c1cc3c(cc12)OCO3 (stereo unspecified)	43.4 µM (inactive)
O=C(O)c1ccc(NNc2cc(=O)[nH]c(=O)[nH]2)cc1	> 100 µM (inactive)
O=C(NC1(C(=O)NNc2nnc(-c3ccccc3)c(-c3ccccc3)n2)C(c2ccccc2)C(c2ccccc2)=NN1c1ccccc1)c1ccccc1 (stereo unspecified)	> 100 µM (inactive)
Clc1ccc(-c2nc3ccc4ccccc4c3c3c2CCCC3)cc1	97.3 µM (inactive)
O=C(OCc1ccccc1)N1CCNCCNCC1	> 100 µM (inactive)

Form field: GI50 recorded for CC(C)(C)C(=O)OCC1OC(N=[N+]=[N-])C(OC(=O)C(C)(C)C)C(OC(=O)C(C)(C)C)C1OC(=O)C(C)(C)C (stereo unspecified) with NCI-H460 (enter value) > 100 µM (inactive)

====

Entries and their measured GI50 follow.
# Tested on: KM12
# Test details: NCI tumour cell line growth inhibition, 48 h
Calls of active or inactive are those of the source. Cut-off read from the data, not from the text of the source: active = GI50 up to about 1.1 µM and inactive = higher.

Returns the measured GI50 for the input compound. Input: CN(NC(=O)c1cccs1)C1=NCCCN1 > 100 µM (inactive)

====

# Test system: SW-620
# Test details: NCI tumour cell line growth inhibition, 48 h
Activity calls are given as the source filed them. No stated cut-off is given here; in the data, active = GI50 up to about 1.1 µM and inactive = higher.
Use one of these outcomes when replying: true (1) for active, false (0) for inactive

Completed entries (count: 5):
Molecule	Group label
NCCN(CCN(C(=O)Nc1ccccc1)c1ccccc1)C(=O)Nc1ccccc1	false (0)
CN(C)c1ccc(-c2c(C#N)c(S)n(NS(=O)(=O)c3ccccc3)c(=O)c2C#N)cc1	false (0)
Nc1ccc(C(=O)NN2C(=O)C(Cl)C2c2cc(Br)ccc2O)cc1 (configuration not stated)	false (0)
CCCOC(=O)c1cc(C(=CCC[C@H]2CC[C@@]3(C)[C@@H](CC[C@@H]4[C@@H]3CC[C@]3(C)[C@@H](C(C)CCCC(C)C)CC[C@@H]43)C2)c2cc(Cl)c(O)c(C(=O)OCCC)c2)cc(Cl)c1O (some centres not stated)	false (0)
CCCc1nc(N)nc(C(=O)Nc2cccc(C(F)(F)F)c2)c1CC	false (0)

Recorded test call requested for CCc1n[nH]c(=O)n1-n1c(C)ccc1C false (0)

Recorded test call requested for Cc1c2cc[n+](C)cc2c(C)c2c1[nH]c1ccc(Oc3ccccc3)cc12 true (1)

Recorded test call requested for CSCCOC(=O)C(=[N+]=[N-])c1ccc([N+](=O)[O-])cc1 false (0)

Recorded test call requested for CC(=O)N1c2ccccc2Sc2cc(C(O)(C(F)(F)F)C(F)(F)F)ccc21 false (0)

Recorded test call requested for CN(C)c1ccc(/C=C/c2ccc(S(N)(=O)=O)cc2)cc1 false (0)

====

# Tested on: Hs-578T
# Test details: NCI tumour cell line growth inhibition, 48 h
Activity calls are given as the source filed them. Rule as the data show it: active = GI50 up to about 1.1 µM and inactive = higher.
Readout kind: GI50

These recorded examples may help you get a feel for the data.
Sample smiles	Recorded result
Cc1ccccc1NC(=O)NC(Oc1ccccc1)(C(F)(F)F)C(F)(F)F	> 100 µM (inactive)
CC1(C)N=c2[nH]cnc2=C(C(N)=O)N1	> 100 µM (inactive)

Okay, now this compound:
Form field: GI50 recorded for CCOC(=O)c1c(O)nc(O)c(CC)c1C with Hs-578T (enter value) > 100 µM (inactive)

====

# System: NCI/ADR-RES
# Test details: NCI tumour cell line growth inhibition, 48 h
Active and inactive are the calls of the source. Rule as the data show it: active = GI50 up to about 1.1 µM and inactive = higher.
Readout kind: GI50

These recorded examples may help you get a feel for the data.
Compound	Recorded result
O=C(Nc1cccc(C(=O)NCCCO)c1)/C(=C/c1ccccc1)NC(=O)c1ccccc1	> 100 µM (inactive)
O=c1c2ccccc2nc(N/N=C/c2ccc(Cl)cc2)n1-c1ccccc1	> 100 µM (inactive)
CN(C)c1ccc(C2CC(C)(O)Oc3cc4c(cc32)OCO4)cc1 (centres undefined)	35.2 µM (inactive)
CCOc1c(/N=N/c2ccccc2Cl)c(-c2ccccc2)nn1C(=S)S	33.8 µM (inactive)
CN(NC(=O)c1cccs1)C1=NCCCN1	> 100 µM (inactive)
O=C1OC([C@H](O)c2cccnc2)c2ccccc21 (some centres undefined)	> 10 µM (inactive)
CCCCC1(N=[N+]=[N-])C(=O)C2C=CC=C3c4ccccc4N(C1=O)C32 (centres undefined)	17.7 µM (inactive)
COc1ccc(/C=C2\C[C@H]3[C@@H]4CCC5=CC(=O)CC[C@]5(C)[C@H]4CC[C@]3(C)C2=O)cc1OC	6.27 µM (inactive)

Okay, now this compound:
Returns the measured GI50 for the input compound. Input: COc1cc2nc(-c3cccs3)nc(N3C(c4ccc(O)cc4)=NNC(=O)c4ccccc43)c2cc1OC 17.7 µM (inactive)
